Source of measurements: a melting point compilation (Tetko et al.; mined from patent text by program, amines drawn as free bases though some values may be those of a salt)

Listing of recorded melting point by entry.

Fill in the blank: the reported melting point of CN(CCO)c1cc(Cl)nc(SCC(=O)O)n1 is ____.
188 to 190 °C

Using the record for O=C1c2ccccc2C2(c3ccc(Cl)cc3)NCCN12 (configuration not stated) , report its melting point.
166 to 168 °C

Given the entry Cc1ccccc1-n1c(CCl)nc2ccccc2c1=O , report its measured melting point.
205 to 206 °C

Data request, read-out melting point, for O=C(NCCOc1ccc(CC(Oc2ccc(C(F)(F)F)cc2)C(=O)O)cc1)c1ccc(-c2ccccn2)cc1 (configuration not stated)
154 to 155 °C

Which melting point value is on record for N#Cc1c[nH]nc1-c1ccccc1Cl ?
160 °C

New cases:
Given the compound COc1cc(OC)cc(C(=CC#N)c2ccc(OC)c(F)c2)c1 , what is its reported melting point?
91 to 93 °C

Item Cc1cc(C)nc(NC(=O)NS(=O)(=O)c2ccsc2C2=CC(=O)CCC2)n1 has what recorded melting point?
190 to 192 °C

Returns the measured melting point for the input compound. Input: CCOC(=O)C1CCC2(CCN(S(=O)(=O)c3ccc(C)cc3)c3ccccc3C2)C1O (configuration not stated)
139 to 140 °C

Look up melting point: CC(=O)CC(=O)Nc1ccc(Cn2ccnc2)cc1
175 °C

Please look up its melting point: O=C1CSc2cc(-c3cccc([N+](=O)[O-])c3)ccc2N1
290 to 292 °C

Report melting point for Cc1nc2cc3c(cc2[nH]1)[nH]c(=O)n3C please.
300 °C

Given the entry COc1ccc(-c2cc(F)c(F)cc2-c2ccc(S(C)(=O)=O)cc2)cc1Cl , report its measured melting point.
148 °C

* * *

Below is a list of entries, each paired with its recorded melting point value.

// returns reported melting point for input CN(C)CCC1CCc2cc(OCc3cc4ccccc4o3)ccc2C1 (single isomer, unassigned; (+))
75 to 77 °C

What does the record list as melting point for CCOc1nc(C)c(N2CCCn3c2nc2c(Cl)ccc(C(OC(F)F)C(F)(F)F)c23)c(C)n1 (stereo not given) ?
218 to 220 °C

Which value of melting point has been reported for O=C(COc1ccc2ccc(=O)oc2c1)c1ccccc1 in the records?
163 to 165 °C

State the recorded melting point for this entry: CSc1nc2sccc2c(=O)[nH]1
232 to 235 °C

Further cases:
I have this compound here, O=C(O)C(=O)c1ccc(OCC(=O)N2CCOCC2)cc1 , and I need its recorded melting point.
182 to 184 °C

* * *

experimental.readout: melting point

GET /values?readout=melting point&item= O=C(O)C1=Cc2cc(OCc3ccccc3)c(OCc3ccccc3)cc2CCC1
180 to 181 °C

I am curious: what melting point value has been reported for CC(C)(C)OC(=O)CN1C(=O)[C@@H](N)[C@H](c2ccccc2)Sc2ccccc21 (relative stereo) ?
172 to 174 °C

Item under review: CCCCCCCCCCCCCCc1ccc(OCC(CO)OC)cc1 (stereo unspecified) . Reported melting point?
43 to 45 °C

Entry under review: CCOCc1nc2c(N)nc(C)c(C)c2n1NC1CCC1 . Reported melting point?
139 to 141 °C

I would be grateful if you could share the reported melting point for CCN(CC)CCN(CC)C(=O)c1ccc(Nc2ccnc3cc(Cl)ccc23)cc1 .
166 °C

Next:
Item CN(C)CCN(CCN(C)C)c1ccc(-c2nc3ccccc3[nH]2)cc1 has what recorded melting point?
190 to 191 °C

Request the reported melting point associated with COc1cc(OC)c(C(=O)n2cccc2Br)cc1OC
120 to 121 °C
